- measured.target: UniProtKB P56373
- Sequence (P56373 1-397): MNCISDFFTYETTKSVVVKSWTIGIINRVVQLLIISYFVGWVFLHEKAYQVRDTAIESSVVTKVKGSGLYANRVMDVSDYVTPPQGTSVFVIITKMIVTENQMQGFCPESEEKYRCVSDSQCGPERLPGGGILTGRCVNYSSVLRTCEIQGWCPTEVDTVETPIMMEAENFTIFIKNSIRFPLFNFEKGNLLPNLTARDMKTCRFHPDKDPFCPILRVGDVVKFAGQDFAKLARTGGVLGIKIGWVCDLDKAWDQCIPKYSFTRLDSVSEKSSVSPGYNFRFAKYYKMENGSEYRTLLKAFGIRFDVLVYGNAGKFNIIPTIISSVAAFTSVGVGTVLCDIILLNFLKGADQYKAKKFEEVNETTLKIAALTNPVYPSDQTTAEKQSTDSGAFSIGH
- assay.comment: In vitro electrophysiology assay for P2X3 (automated whole-cell patch clamp, α,β-MeATP agonist)
- Format: cell-based
- experimental.conditions: Table 2; 800 nM α,β-MeATP, peak current; read-out: h P2X3 (pIC50 range of activity) (converted)
Entries and their measured IC50 follow.
measurement.kind: IC50

Cc1ccc([C@@H](C)Nc2ncnc3c(S(=O)(=O)N4CCC(O)CC4)cc(-c4ccc(F)cc4)cc23)nn1 [Example 19]; 316 to 3160 nM
Cc1nc([C@@H](C)Nc2ncnc3c(S(=O)(=O)N4CCNCC4)cc(-c4ccc(F)cc4)cc23)no1 [Example 25]; 316 to 3160 nM
Cc1ccc([C@@H](C)Nc2ncnc3c(S(=O)(=O)N4CCOCC4)cc(-c4ccc(F)cc4)cc23)nn1 [Example 10]; 316 to 3160 nM
COC(=O)N1CCCC(COc2cc(-c3ccc(F)cc3)cc3c(NCc4ccc(C)nn4)ncnc23)C1 (stereo not drawn) [Example 66]; 316 to 3160 nM
COC(=O)N1CCC(Oc2cc(-c3ccc(F)cc3)cc3c(NCc4ccc(C)nn4)ncnc23)C1 (stereo not drawn) [Example 68]; 316 to 3160 nM
COC(=O)N1CCC(COc2cc(-c3ccc(F)cc3)cc3c(NCc4ccc(C)nn4)ncnc23)CC1 [Example 64]; 316 to 3160 nM
Cc1nc([C@@H](C)Nc2ncnc3c(S(=O)(=O)N4CCC(F)(F)C4)cc(-c4ccc(F)cc4)cc23)no1 [Example 17]; < 316 nM
Cc1ccc(CNc2ncnc3c(OCC4(C)COC4)cc(-c4ccc(F)cc4)cc23)nn1 [Example 50]; < 316 nM
C[C@@H](Nc1ncnc2c(OCC(=O)NC3(C(=O)O)CC3)cc(-c3ccc(F)cc3)cc12)c1cnc(C(F)(F)F)nc1 [Example 44]; 316 to 3160 nM
CNS(=O)(=O)c1cc(-c2ccc(F)cc2)cc2c(N[C@H](C)c3ccc(C)nn3)ncnc12 [Example 21]; < 316 nM
Cc1ccc([C@@H](C)Nc2ncnc3c(S(=O)(=O)N4CCNCC4)cc(-c4ccc(F)cc4)cc23)nn1 [Example 24]; 316 to 3160 nM
COC(=O)C1(NC(=O)COc2cc(-c3ccc(F)cc3)cc3c(N[C@H](C)c4cnc(C(F)(F)F)nc4)ncnc23)CC1 [Example 43]; 316 to 3160 nM
Cc1ccc([C@@H](C)Nc2ncnc3c(OCC(F)F)cc(-c4ccc(F)cn4)cc23)nn1 [Example 5]; 316 to 3160 nM
C[C@@H](Nc1ncnc2c(OC3CCN(CC(F)(F)F)CC3)cc(-c3ccc(F)cc3)cc12)c1cnc(C(F)(F)F)nc1 [Example 36]; 316 to 3160 nM
CNS(=O)(=O)c1cc(-c2ccc(F)cc2)cc2c(N[C@H](C)c3noc(C)n3)ncnc12 [Example 22]; < 316 nM

---

- measured.target: h P2X3 (Homo sapiens)
- assay.comment: In vitro electrophysiology assay for P2X3 (automated whole-cell patch clamp, α,β-MeATP agonist)
- Type: cell-based
- experimental.conditions: Table 3; 800 nM α,β-MeATP, peak current; read-out: h P2X3 (pIC50 range of activity) (converted)
Entries and their measured IC50 follow.
measurement.kind: IC50

COC(=O)C1(NC(=O)COc2cc(-c3ccc(F)cc3)cc3c(N[C@H](C)c4cnc(C(F)(F)F)nc4)ncnc23)CC1 [Example 43]; 316 to 3160 nM
C[C@@H](Nc1ncnc2c(OC3CCNC3=O)cc(-c3ccc(F)cc3)cc12)c1cnc(C(F)(F)F)nc1 (stereo partly shown) [Example 34]; < 316 nM
Cc1ccc([C@@H](C)Nc2ncnc3c(S(=O)(=O)N4CCC(F)(F)C4)cc(-c4ccc(F)cc4)cc23)nn1 [Example 16]; < 316 nM
Cc1nnc(C(C)Nc2ncnc3c(OCC(F)F)cc(-c4ccc(F)cn4)cc23)s1 (single isomer, unassigned; enantiomer 1) [Example 6]; < 316 nM
